B1: library; numbered along this chain (parent)
chain: MNIQIGELAKRTACPVVTIRFYEQEGLLPPPGRSRGNFRLYGEEHVERLQFIRHCRSLDMPLSDVRTLLSYRKRPDQDCGEVNMLLDEHIRQVESRIGALLELKHHLVELREACSGARPAQSCGILQGLSDCVCDTRGTTAHPSD

Variants of: B1
Experiment: sfGFP reporter fluorescence (15 h) (µM FITC); higher = stronger transcriptional activation
Details: library round: Round 1; ligand: 1 µM Pb

| VARIANT ANNOTATION | sfGFP reporter fluorescence |
| --- | --- |
| N83T I97T | 0.0658 |
| N83T D131H | 0.0836 |
| N83T L107C C114R G128M | 0.0605 |
| N83T D131S D135A | 0.0871 |
| D131L D135S | 0.0943 |
| D135A P143F | 0.0718 |
| D131T D135Y | 0.0933 |
| N83T L107C | 0.518 |
| N83T C134V | 0.0731 |
| D64I D135T | 0.514 |
| N83R L107H | 0.0632 |
| M60L D64K L107C E109L G128I D131T | 2.23 |
| P61N D64T | 1.06 |
| P30V K104V | 0.117 |
| N83T R111L | 0.0683 |
| N83T L85R | 0.0607 |
| N83T D131A P143L | 0.0895 |
| R96A K104V G128M | 0.0902 |
| N83T D131S | 0.0836 |
| D64T D135A | 0.23 |
| R111L G128I | 0.0985 |
| P61N D64K N83T | 0.232 |

// data source = the supplement of paper PMC12783771
